Molecular target: T1, 4H2944-bH
T1 chain: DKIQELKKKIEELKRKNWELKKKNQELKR
Assay: two-hybrid library CCNG1;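 further: natural log of median RNA to DNA barcode read ratio; higher means stronger binding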
Exam item: assign YES to entries whose interaction score is below 0.8 and NO to entries at or above 0.8. Note that a value of exactly 0.8 receives NO.

| binder | category |
| --- | --- |
| DKIQELKKKIEELKRKNWELKKEIQELER [4H2937-bH] | YES |
| DKIQELKKKIEELKRKNWELKKKNQELKR [4H2944-bH] | YES |
| DKIQELKKENEELEREIWELEKKNQELKR [4H2696-bH] | YES |
| DEIQELEKEIEELERENWELEKENQELER [4H19-bH] | NO |

Reference source: paper PMC10397247
